- Tested on: M14 melanoma
- test protocol: NCI-60 one-dose screen, 48 h
- test conditions: 10 µM unless noted
The panel holds about 83,000 compounds, 20% with a hit somewhere; the sample as a whole holds those more often. Calls of active or inactive are those of the source. How the source made its calls: active means growth percent below 10; inactive means the rest.
Your reply should match one of these outcome classes. active, inactive

Recorded test outcome, item COc1ccc(/C=C2\CN(Cc3cn(CCCNc4ccnc5cc(Cl)ccc45)nn3)C/C(=C\c3ccc(OC)c(OC)c3)C2=O)cc1OC active

What do we get for CC(C)OC1=C(Cl)C(=O)c2ccccc2C1=O ? inactive

What do we get for Clc1ccc2c(c1)C[C@H]1C[C@@H](c3cccs3)N2O1 ? inactive

What do we get for CC(C)(C)[Si](C)(C)OC1[C@@H](CNC(=O)NC(=O)CCl)O[C@@H](n2cnc3c(N)ncnc32)[C@H]1O[Si](C)(C)C(C)(C)C (some centres undefined) ? inactive

====

- Tested on: T-47D breast
- test protocol: NCI-60 one-dose screen, 48 h (100 = growth as untreated, 0 = no growth, -100 = all killed)
- test conditions: 10 µM
About 83,000 compounds went through this panel and 20% of them were active in at least one assay; those are over-represented in the sample as a whole.
Response field label takes true when growth is strictly below -20% and false in all other cases.

Quick check: does O=c1ccc2ccccc2o1 have growth under -20%? false

What do we get for COc1cc2nc(N3CCC[C@H](NC4=CC(=O)c5ccccc5C4=O)C3)nc(N)c2cc1OC ? true

What do we get for CCC(=O)Nc1nnc(Cc2ccc(OC)c(OC)c2)s1 ? false

What do we get for O=C1C2CC3C(CC2C(=O)[N]1[Sn]([c]1ccccc1)([c]1ccccc1)[c]1ccccc1)C1(Cl)C(Cl)=C(Cl)C3(Cl)C1(Cl)Cl (stereo not given) ? true

What do we get for O=C1CCC(N2Cc3c(C#CCCCNC(=O)c4cc5c(o4)C(=O)c4ccccc4C5=O)cccc3C2=O)C(=O)N1 (stereo not given) ? false

====

Assign growth to each entry below.
- Tested on: A498 renal
- test protocol: NCI-60 one-dose screen, 48 h (100 = growth as untreated, 0 = no growth, -100 = all killed)
- test conditions: 10 µM unless noted
This is part of a sample that, as a whole, favours compounds with a hit. Of some 83,000 tested, about 20% had one in any assay.
Answer with a number only, understood to be in %.

# get_value(readout='growth', item= CCCCCCCCCCCC(=O)[O][Sn]([CH2]CCC)([CH2]CCC)[CH2]CCC ) -86

What do we get for CCOC(=O)c1c(Cl)c2c(n1Cc1cc(OC)cc(OC)c1)-c1oncc1CCC2 ? -13

What do we get for O=C(O)CCN1CCN(c2cccc(Cl)c2)CC1 ? 94.2

What do we get for COc1cc(NC(=O)COc2ccccc2)c(C(N)=O)cc1OC ? 4.84

What do we get for COc1ccc(NC(=O)COc2ccccc2)c(C(N)=O)c1 ? 9.39

What do we get for CCOc1ccc(-c2cnnn2-c2nonc2-n2cccc2)cc1 ? 18.7

====

- Tested on: RPMI-8226 leukemia
- test protocol: NCI-60 one-dose screen, 48 h (100 = growth as untreated, 0 = no growth, -100 = all killed)
- test conditions: 10 µM
The panel holds about 83,000 compounds, 20% with a hit somewhere; the sample as a whole holds those more often. Activity calls are given as the source filed them. How the source made its calls: active means growth percent below 10; inactive means the rest.
result type: growth

# get_value(readout='growth', item= CCCCOC(=O)C1OC(Oc2ccc3c(C)cc(=O)oc3c2)[C@@H](OC(C)=O)C(OC(C)=O)C1OC(C)=O (some centres undefined) ) 97.9% (inactive)

What do we get for COc1ccccc1CNCCCCCCCCCCCCN1C(=O)c2ccc3c4c(ccc(c24)C1=O)C(=O)N(CCCCCCCCCCCCNCc1ccccc1OC)C3=O ? 2.41% (active)

What do we get for O=c1nc(NO)[nH]c(=O)n1Cc1ccccc1 ? 104% (inactive)

What do we get for COc1ccc(S(=O)(=O)c2ccc(C(N)=O)cc2)cc1NC(=O)c1[nH]c(C)c2c1CCCCC2=O ? 46.9% (inactive)
